- Target system: SHP1 (Homo sapiens, UniProt P29350)
- Construct: the catalytic domains of SHP1 and SHP2 were expressed and purified as (His)6-fusion proteins; (His)6
- Sequence (P29350 244-515 limits assumed): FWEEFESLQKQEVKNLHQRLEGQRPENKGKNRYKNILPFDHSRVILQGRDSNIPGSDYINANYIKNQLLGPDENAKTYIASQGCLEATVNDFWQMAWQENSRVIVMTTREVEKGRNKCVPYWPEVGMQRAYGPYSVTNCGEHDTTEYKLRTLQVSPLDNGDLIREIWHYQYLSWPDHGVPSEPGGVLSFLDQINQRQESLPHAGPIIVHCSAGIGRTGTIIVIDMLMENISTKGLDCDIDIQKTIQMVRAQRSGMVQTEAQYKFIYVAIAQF
- Assay comment: Phosphatase panel, pNPP assay
- Measurement conditions: 2 mM pNPP; read-out: Inhibition Potency, IC50
Property measured: IC50 (µM)

>  <Compound>
NC(=O)C(Cc1ccc(C(F)(F)P(=O)(O)O)cc1)NC(=O)C(CC(=O)O)NC(=O)Cc1ccc(C(F)(F)P(=O)(O)O)cc1 (stereo not shown)

>  <Property measured>
IC50

>  <Scale unit>
µM

>  <Experimental result>
11

$$$$

====

- Target system: Yersinia PTP (Yersinia enterocolitica)
- Sequence (P15273 whole entry): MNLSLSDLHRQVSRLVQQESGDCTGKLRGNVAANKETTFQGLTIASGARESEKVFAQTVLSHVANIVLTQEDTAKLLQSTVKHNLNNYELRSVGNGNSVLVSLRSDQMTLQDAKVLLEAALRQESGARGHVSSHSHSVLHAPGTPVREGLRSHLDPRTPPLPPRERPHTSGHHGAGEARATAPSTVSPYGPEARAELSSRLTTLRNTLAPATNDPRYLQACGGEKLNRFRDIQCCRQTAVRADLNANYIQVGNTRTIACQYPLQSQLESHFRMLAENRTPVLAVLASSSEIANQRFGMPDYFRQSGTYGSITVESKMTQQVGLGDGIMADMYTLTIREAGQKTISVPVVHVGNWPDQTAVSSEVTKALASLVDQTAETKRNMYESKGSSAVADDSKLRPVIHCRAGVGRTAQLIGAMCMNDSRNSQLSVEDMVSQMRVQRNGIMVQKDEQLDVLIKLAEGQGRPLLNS
pIC50: −log10 of the molar value.

>  <Compound>
NC(=O)C(Cc1ccc(C(F)(F)P(=O)(O)O)cc1)NC(=O)C(CC(=O)O)NC(=O)Cc1ccc(C(F)(F)P(=O)(O)O)cc1 (stereo not shown) [Compound 40]

>  <Target system>
Yersinia PTP (Yersinia enterocolitica)

>  <pIC50>
5.80

$$$$
